Origin of the recorded values: the supplement of paper PMC10724198

# Test system: Saccharomyces cerevisiae
# assayComment: protein stability index of tFT-peptide fusion (C-terminal peptide) (PSI (0-1 scale)); higher = more stable (slower turnover)
# testParameters: genetic background: wild type; temperature: 37 C
readoutLabel: protein stability index

INSERT INTO results (sequence, observed) VALUES
  ('VCLLGWGVRLVS', 0.576),
  ('ISLSSLYVVMYV', 0.392),
  ('VGFYGRWVCVAC', 0.384),
  ('TLCCLVCSQGVV', 0.526),
  ('EDRKRNKERRWT', 0.57),
  ('ECLRLTTKKKIN', 0.197),
  ('FCGWLGVYLVKG', 0.668),
  ('FFRPWRLVGCLV', 0.266),
  ('IYEAFLVFCLCG', 0.439),
  ('FGVSLFLPLSVV', 0.418),
  ('LLLIGISFLIFY', 0.335),
  ('GFGRRGQFGGTG', 0.835),
  ('RVFVGLVDFLFW', 0.57),
  ('NFKELMEKSKYR', 0.718),
  ('LFSVLVFIYFVM', 0.217),
  ('LRNVPCLVFFWV', 0.631),
  ('YPVAWSSAIIIR', 0.506),
  ('RFGLPLLVVTWL', 0.512),
  ('VRFLSLNVLFFC', 0.48),
  ('LSFLALLLFFRI', 0.357),
  ('VEQLLYIKATNV', 0.506),
  ('GLCLFLIGVFSV', 0.381),
  ('PCLLRYLVHPFP', 0.716),
  ('LIMIRLLYLRLI', 0.102),
  ('FIFYYTVLLLCR', 0.131),
  ('VFFGLYLVTFTS', 0.358),
  ('ARRFLVRRFILF', 0.326),
  ('GLFLYCCLVSLL', 0.33),
  ('VIQNKKKNKITS', 0.284),
  ('FFLVLWSSLLSP', 0.544),
  ('WVRLGRSWTTVG', 0.549),
  ('SLRKRILCRFEY', 0.599),
  ('FFSFTVLVSYGF', 0.284),
  ('SIIRHLFHPSST', 0.695),
  ('GGGGGGGDVLVW', 0.392),
  ('AFRFFWFFFFTS', 0.557),
  ('VTVWVFVFLRGL', 0.453),
  ('LVVIYPLLSSPV', 0.562),
  ('GGCYAGVAMRLI', 0.681),
  ('FLLPILSSSPVL', 0.691),
  ('GLVVWWLSGWLW', 0.425);

* * *

# Tested on: Saccharomyces cerevisiae
# assayComment: protein stability index of tFT-peptide fusion (C-terminal peptide) (PSI (0-1 scale)); higher = more stable (slower turnover)
# testParameters: genetic background: wild type; temperature: 30 C
Measured protein stability index values are reported for all entries that follow.
readoutLabel: protein stability index

INSERT INTO results (sequence, observed) VALUES
  ('FWEHFVLSVRPE', 0.758),
  ('GGVRGWAAFSAE', 0.682),
  ('PPPPALWPPPSP', 0.735),
  ('EGGGWGVGSEVG', 0.694),
  ('TIVQNLEIVQAR', 0.648),
  ('AGAGGRAMSDTS', 0.693),
  ('ATCSILPSRLSI', 0.612),
  ('LVCGIDSLVRLV', 0.57),
  ('GAGGSGRRIGCR', 0.762),
  ('AGGGEASRGQAK', 0.596),
  ('APPAPPTYLAPF', 0.729),
  ('SNRALHATPCPR', 0.9),
  ('GVRNISELSRLF', 0.644),
  ('LIMIRLLYLRLI', 0.102),
  ('FSGISVMCLFSG', 0.687),
  ('PPPHPLALPPPP', 0.74),
  ('RMIPYDLIRLTR', 0.705),
  ('DRHVPPASYLAD', 0.634),
  ('LPSTLLLPLASP', 0.712),
  ('AGLWWGGCAAGA', 0.804),
  ('PPPFLPLCFPPL', 0.691),
  ('TTFHLCLFQKSS', 0.584),
  ('AQPPPPPAPTPS', 0.674),
  ('AILTLVQEVRKY', 0.62),
  ('PVLVLPHARSPF', 0.695),
  ('CEGERRTLSVKP', 0.666),
  ('RVKGCYGPGSGI', 0.685),
  ('RVNERNAEAGGD', 0.641),
  ('SEICGAPLARLR', 0.707),
  ('LPPPTLASTPPP', 0.77),
  ('CWVNDGCPICGW', 0.732),
  ('PLPAPPSTPSSP', 0.715),
  ('PPPLPRSPPPPF', 0.74),
  ('RITTNQMNIKFI', 0.653),
  ('PAGILMQDSRRA', 0.589),
  ('PPSVLLPLACPP', 0.677),
  ('TNTQRYRKTRST', 0.721),
  ('LHCLGFWRVMYG', 0.654),
  ('PPPVPPPSPPPT', 0.641),
  ('RPTPHVVLPPLP', 0.524),
  ('CGLSLRVICLEV', 0.497);

* * *

# Test system: Saccharomyces cerevisiae
# assayComment: protein stability index of tFT-peptide fusion (C-terminal peptide) (PSI (0-1 scale)); higher = more stable (slower turnover)
# testParameters: genetic background: das1 deletion; temperature: 30 C
Measured protein stability index values are reported for all entries that follow.
readoutLabel: protein stability index

INSERT INTO assay_data (sequence, readoutlabel, observed) VALUES
  ('QDYVKDRHHGLK [NUP157 C-terminal 12 aa]', 'protein stability index', 0.698),
  ('TIEEVKIPGLDI [MRPL50 C-terminal 12 aa]', 'protein stability index', 0.701),
  ('FPRNLAKSVTVE [GFA1 C-terminal 12 aa]', 'protein stability index', 0.599),
  ('LVAEATKKKRHT [DJP1 C-terminal 12 aa]', 'protein stability index', 0.711),
  ('AVENQFFSQKKK [ACS2 C-terminal 12 aa]', 'protein stability index', 0.707),
  ('MEALKEAREILG [MSH1 C-terminal 12 aa]', 'protein stability index', 0.703),
  ('STCIYLYTHNSM [YBR206W C-terminal 12 aa]', 'protein stability index', 0.672),
  ('HNVCGRAFSLPL [HSL7 C-terminal 12 aa]', 'protein stability index', 0.712),
  ('KKNKSAIDGIFG [RMP1 C-terminal 12 aa]', 'protein stability index', 0.717),
  ('GKGAIDGFFKRK [RNH202 C-terminal 12 aa]', 'protein stability index', 0.694),
  ('YAPDVVRSLENL [RRP42 C-terminal 12 aa]', 'protein stability index', 0.727),
  ('PSSEEDILHDEL [LHS1 C-terminal 12 aa]', 'protein stability index', 0.68);

* * *

# System: Saccharomyces cerevisiae
# assayComment: protein stability index of tFT-peptide fusion in wild type (PSI (0-1 scale)); higher = more stable (slower turnover)
# testParameters: genetic background: wild type
readoutLabel: protein stability index

INSERT INTO assay_data (sequence, observed) VALUES
  ('KKHKKGQAQKIN', 0.0853),
  ('RSLRVQLPLYFR', 0.136),
  ('CLVSLPILFFFR', 0.499),
  ('VRGAKGGWRLVG', 0.28),
  ('PDCRNHLIKLLN', 0.136),
  ('VVTRLDAIYFRI', 0.302),
  ('GLYMCSVSCWFR', 0.338),
  ('KKHKKGPKQKIN', 0.175),
  ('CTSCGYKFRHNN', 0.555),
  ('LEVYLSCVACIN', 0.0193),
  ('GLIQPLPVQFLN', 0.0806),
  ('RSLRVLLPLYFRF', 0.195),
  ('RSPRVLLPLYFR', 0.334),
  ('RLIPPLPVQFLN', 0.0667),
  ('FSMRWTFRSWVN', 0.272),
  ('PDKRNHRIKLLN', 0.159),
  ('ANTLPMCPLLLR', 0.442),
  ('CLVFLPILLFFR', 0.0802),
  ('PDKRNHLEKLLN', 0.292);

* * *

Measured protein stability index values are reported for all entries that follow.
# Test system: Saccharomyces cerevisiae
# assayComment: protein stability index of tFT-peptide fusion (C-terminal peptide) (PSI (0-1 scale)); higher = more stable (slower turnover)
# testParameters: genetic background: wild type; temperature: 30 C
readoutLabel: protein stability index

INSERT INTO measurements (sequence, readoutlabel, observed) VALUES
  ('LLNNNLNQRIYQ', 'protein stability index', 0.729),
  ('SPSPRLSFFLPS', 'protein stability index', 0.727),
  ('KEWKSESTVLEV', 'protein stability index', 0.747),
  ('LGRGEVWYIDRG', 'protein stability index', 0.696),
  ('MGYPGFGRVPYV', 'protein stability index', 0.723),
  ('AVNEHVPILFLL', 'protein stability index', 0.62),
  ('PAPPPPRRPLPP', 'protein stability index', 0.657),
  ('VEAWGVGVGSTV', 'protein stability index', 0.676),
  ('RVSVRGLESGVC', 'protein stability index', 0.665),
  ('PLRPAPVLYPAF', 'protein stability index', 0.654),
  ('GHVLVRHNVLAV', 'protein stability index', 0.58),
  ('KTKKIWKKKSNI', 'protein stability index', 0.713),
  ('NIMNKIFQKQKE', 'protein stability index', 0.642),
  ('SSPSPAPPPPRP', 'protein stability index', 0.738),
  ('RALVIKREALQI', 'protein stability index', 0.59),
  ('LACGIDGYYWRH', 'protein stability index', 0.792),
  ('GGLFRWCVWRIV', 'protein stability index', 0.145),
  ('TRYIRKSKTKGA', 'protein stability index', 0.643),
  ('EKKKNTQGIKKK', 'protein stability index', 0.685),
  ('RFNGWRDKEAME', 'protein stability index', 0.707),
  ('PRVCSCFLPTRP', 'protein stability index', 0.711),
  ('LHHYPLVISGVS', 'protein stability index', 0.47),
  ('TSLPPSPPPSPT', 'protein stability index', 0.476),
  ('DCFISPRIFRPK', 'protein stability index', 0.721),
  ('GVWGGRGQGWYR', 'protein stability index', 0.674),
  ('LRPPLPPPCPPP', 'protein stability index', 0.599),
  ('RLPLPPSRLVKH', 'protein stability index', 0.671),
  ('TRRHKPNSGTRP', 'protein stability index', 0.695),
  ('DFVKVVPNVVDL', 'protein stability index', 0.659),
  ('PPPLLSPAFFLP', 'protein stability index', 0.727),
  ('NPHLTLPVHPPH', 'protein stability index', 0.709),
  ('RVSRSCCATGEG', 'protein stability index', 0.599),
  ('GSSPIDGLEVYG', 'protein stability index', 0.654),
  ('PLLPYPFPPPLS', 'protein stability index', 0.784),
  ('DGTICAITYLTS', 'protein stability index', 0.665),
  ('SAACQRWGYLRV', 'protein stability index', 0.688),
  ('HFLSCVGSLWFH', 'protein stability index', 0.741),
  ('LLRSSASISLKK', 'protein stability index', 0.738),
  ('TRGCIRWRVVRR', 'protein stability index', 0.7),
  ('KPVGLPGRIRLG', 'protein stability index', 0.751),
  ('IKNKDLISVIII', 'protein stability index', 0.646);
